Exercise: state measured denaturant midpoint (higher = more stable) for each of the variants provided.
B1: Protein S100-G, P02633 (parent)
chain: MSAKKSPEELKGIFEKYAAKEGDPNQLSKEELKLLLQTEFPSLLKGPSTLDELFEELDKNGDGEVSFEEFQVLVKKISQ

- Variants of: B1
- test_settings: Bos taurus; pH 7; 25 °C; Urea; CD; Potassium phosphate 10 mM; structure 1IGV; whole UniProt chain shown
Form entry: value (M) — number only.

Data request: Would you kindly share the measured denaturant midpoint (higher = more stable) for `V65A` ?
Data returned: 3.4

Data request: Now the same for `I77V`
Data returned: 4.4

Data request: Now the same for `F70A`
Data returned: 2

Data request: Now the same for `L10V`
Data returned: 4.3

Data request: Now the same for `L27A`
Data returned: 2.7

Data request: Now the same for `V65G`
Data returned: 2.6

Data request: Now the same for `L32A`
Data returned: 3.8

Data request: Now the same for `L27G`
Data returned: 1.8

Data request: Now the same for `V74L`
Data returned: 6.6

Data request: Now the same for `F70W`
Data returned: 6.1

Data request: Now the same for `F14A`
Data returned: 2
